Molecular target: cyno FGFR2b protein (recombinant) (cyno, UniProt A0A2K5TL97 22-380)
Assay: SPR, antibody captured by anti-human Fc, cyno FGFR2b
Reported values of kon for individual entries
Unit M⁻¹ s⁻¹ implied. Number only.

Known kon results, listed for orientation:
>>> recorded_measurement("BGAh9179 (antibody, human IgG1, kappa, V domains shown, also called BGA9179; humanized antibody developed from BGAm1371) VH: QVQLVQSGAEVKKPGASVKVSCKASGYTITDTYIHWVRQAPGQGLEWMGRIDPAEGNTMFASEFQGRVTMTADTSTSTVYMELSSLRSEDTAVYYCARSKIHYDYDEGFAYWGQGTLVTVSS VL: DIVLTQSPDSLAVSLGERATINCRASESVDDYGYSFLHWYQQKPGQPPKLLIYRASNLESGVPDRFSGSGSGTDFTLTISSLQAEDVAVYYCQQSNQNPRTFGGGTKVEIKR")
83700
>>> recorded_measurement("BGAh9239 (antibody, human IgG1, kappa, V domains shown, also called humanized antibody developed from BGAm1823) VH: QVQLVQSGAEVKKPGSSVKVSCKASGYTFSIYWLNWVRQAPGQGLEWMGQIYPENADTNYSGKFKGRVTITADKSTSTAYMELSSLRSEDTAVYFCARGGFDYWGQGTLVTVSS VL: DIQMTQSPSSLSASVGDRVTITCRASENIYSNLAWYQQKPGKAPKLLIYTATNLAEGVPSRFSGSGSGTDFTLTISSLQPEDFATYYCQHFYGILYTFGQGTRLEIKR")
79900
>>> recorded_measurement("BGAm1371 (antibody, V domains shown, assays detect or capture it with anti-human IgG; also called parental mouse clone; murine parental antibody of BGAh9179) VH: QVQLKQSGAELVKPGASVKLSCTASGFNIKDTYIHWVKQRPEQGLEWIGRIDPANGNTMFASEFQGKATITAYTSSNTAYMQLSSLTSGDTAVYYCARSKIHYDYDEGFAYWGQGTLVTVSS VL: NIVLTQSPPSLAVSLGQRATVSCRASESVDDYGYSFLHWYQQKPGQPPKLLIYRASNLESGIPARFSGSGSRTDFTLTINPVETDDVATYYCQQSNQNPRTFGGGTKLEIK")
79700

# ---- query binder ----
Lookup result for BGAm1823 (antibody, V domains shown, assays detect or capture it with anti-human IgG; also called murine parental antibody of BGAh9239) VH: EVQLQQSGAELVKPGASVKISCKASGYAFSIYWMNWVKQRPGKGLEWIGQIYPENGDTNYNGKFKGKATLTADKSSSTAYMHLSSLTSEDSAVYFCARGGFDYWGQGTTLTVSS VL: NIVMTQSPASLSASVGETVTITCRASENIYSNLAWYQQKQGKSPQLLVYTATNLADGVPSRFSGSGSGTQFSLKINSLQPEDFGSYYCQHFYGILYTFGSGTRLEIK ; measured kon: 73500
